test method notes: Intravital two-photon imaging of OTA transport in the liver
Format: in vivo, mice
test context: mouse, sinusoidal blood (liver), intravenous; homozygous albumin knockout mice, 5 mg/kg tail vein bolus; read-out: half-life of OTA signal in sinusoidal blood
observation type: half-life

What measured half-life goes with C[C@@H]1Cc2c(Cl)cc(C(=O)N[C@@H](Cc3ccccc3)C(=O)O)c(O)c2C(=O)O1 ?
~13.2 s

###

test method notes: Intravital two-photon imaging of OTA transport in the kidneys
Format: in vivo, mice
test context: mouse, renal blood capillaries (kidney), intravenous; homozygous albumin knockout mice, 5 mg/kg tail vein bolus; read-out: half-life of OTA signal in renal blood capillaries
observation type: half-life

So what's the measured half-life for this one? C[C@@H]1Cc2c(Cl)cc(C(=O)N[C@@H](Cc3ccccc3)C(=O)O)c(O)c2C(=O)O1
~16.8 s
